Where do the numbers come from? From the supplement of paper PMC8728848.

SYSTEM NAME: MurNAc(b1-4)GlcNAc
PROCEDURE SUMMARY: glycan array binding signal (z-score within array); higher = stronger binding
CONDITIONS USED: glycan notation: IUPAC condensed, linker removed
The entries come from a sample that favours the strongest signals as a whole.
METRIC: glycan array binding signal (z-score)
Answers are plain numbers.

Note down glycan array binding signal (z-score) recorded for EfCBM33A (Enterococcus faecalis), Q838S1 (protein) MKKSLLTIVLAFSFVLGGAALAPTVSEAHGYVASPGSRAFFGSSAGGNLNTNVGRAQWEPQSIEAPKNTFITGKLASAGVSGFEPLDEQTATRWHKTNITTGPLDITWNLTAQHRTASWDYYITKNGWNPNQPLDIKNFDKIASIDGKQEVPNKVVKQTINIPTDRKGYHVIYAVWGIGDTVNAFYQAIDVNIQ 0.631
